Each recorded value in this set is attributed to the supplement of paper PMC10567573.

Each entry below carries its reported protein stability index.
B1: USP39 (parent)
chain: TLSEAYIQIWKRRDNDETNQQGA

Variants of: B1
protocol_text: protein stability index of a GFP-peptide fusion (GPS, HEK-293T) (PSI 1-6); higher = more stable;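 also: lentivirally expressed fusions sorted by FACS into six bins by GFP to DsRed ratio, PSI derived from sequencing read proportions per bin multiplied by bin number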
condition_context: c terminus: native
Provide a numeric answer; units are not to be included.

Worked cases, answers included:
I9F 2.03
T18G 2.57
T18V 2.56
I9T 2.7
S3E 2.95
Q8I 1.5

Next item in the queue.
Qu. Quick one: protein stability index for "Q8D" ?
Ans. 2.48
